Measured pIC50 of individual entries
target: JAK2 (Homo sapiens (Human)); experiment: Inhibition of enzymatic JAK2 kinase activity (TR-FRET); format: biochemical; settings: read-out: IC50 JAK
Sequence (O60674 808-1132): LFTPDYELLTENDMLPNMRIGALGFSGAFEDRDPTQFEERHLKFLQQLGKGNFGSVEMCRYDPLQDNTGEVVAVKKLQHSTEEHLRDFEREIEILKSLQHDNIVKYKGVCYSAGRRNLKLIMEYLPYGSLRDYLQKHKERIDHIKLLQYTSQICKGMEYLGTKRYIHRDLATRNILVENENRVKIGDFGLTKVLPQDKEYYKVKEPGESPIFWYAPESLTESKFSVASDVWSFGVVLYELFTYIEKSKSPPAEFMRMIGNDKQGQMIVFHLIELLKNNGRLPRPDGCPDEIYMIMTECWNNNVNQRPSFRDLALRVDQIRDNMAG
pIC50: −log10 of the molar value. Structures can show the parent of a compound that is named as a salt.

Example cases with answers are listed next.
molecule	pIC50
NC(=O)CC1CCN(c2ccc(Nc3nc(N4CCCCCC4)nc4cn[nH]c(=O)c34)cn2)CC1 [Example 99]	> 7.30
O=C(CC1CCN(c2ccc(Nc3nc(N4CCCCCC4)nc4cn[nH]c(=O)c34)cc2)CC1)NCCO [Example 109]	> 8.00

### Prompt Find pIC50 for N#CCC1CCN(c2nc(Nc3ccc(-c4nn[nH]n4)cc3)c3c(=O)[nH]ncc3n2)CC1 [Example 245] on JAK2 (Homo sapiens (Human)) and write it down.
### Response > 7.30

### Prompt Find pIC50 for O=C(O)CC1CCC(c2ccc(Nc3nc(-c4ccccc4)nc4cn[nH]c(=O)c34)cc2)CC1 (centres unmarked) [Example 87] on JAK2 (Homo sapiens (Human)) and write it down.
### Response > 7.00

### Prompt Find pIC50 for O=C(O)C1CC12CCN(c1ccc(Nc3nc(N4CCCNCC4)nc4cn[nH]c(=O)c34)cc1)CC2 (centres unmarked) [Example 72, hydrochloride] on JAK2 (Homo sapiens (Human)) and write it down.
### Response > 7.00

---

biological target: UniProt:O60674; test: Inhibition of enzymatic JAK2 kinase activity (TR-FRET); type: biochemical; details: read-out: IC50 JAK
observed_property: IC50

Example cases with answers are listed next.
compound	system_under_test	observed_property	value_observed
O=C(O)C[C@H]1CC[C@H](c2ccc(Nc3nc(N4CCCCCC4)nc4cn[nH]c(=O)c34)cc2)CC1 [Example 129]	UniProt:O60674	IC50	< 10 nM
COCCN1CCN(c2ccc(Nc3nc(N4CCCCCC4)nc4cn[nH]c(=O)c34)cc2)CC1 [Example 255]	UniProt:O60674	IC50	< 10 nM

### Prompt Consider the compound N#CCC1CCN(c2nc(Nc3ccc(OCCN4CCC(CO)CC4)cc3)c3c(=O)[nH]ncc3n2)CC1 [Example 218] and give its recorded IC50.
### Response < 50 nM

---

molecular target: Syk (356-635 amino acids) catalytic domain (Homo sapiens (Human)); assay: Inhibition of enzymatic Syk kinase activity (radiometric); assay type: biochemical; conditions: read-out: IC50 Syk
observed_property: IC50

Example cases with answers are listed next.
molecule	IC50
O=c1[nH]ncc2nc(N3CCCCCC3)nc(Nc3ccc(OCCN4CCOCC4)cc3)c12	< 0.05 µM
CC(C)(CO)N1CCN(c2ccc(Nc3nc(N4CCC(CC#N)CC4)nc4cn[nH]c(=O)c34)cc2)CC1	< 0.01 µM
CCOC(=O)C1CC12CCN(c1ccc(Nc3nc(-c4ccccc4)nc4cn[nH]c(=O)c34)cc1)CC2 (stereo not drawn)	> 0.1 µM
O=C(O)C1CC12CCN(c1ccc(Nc3nc(-c4ccncc4)nc4cn[nH]c(=O)c34)cc1)CC2 (stereo not drawn)	> 0.1 µM

### Prompt Consider the molecule O=c1[nH]ncc2nc(N3CCCCCC3)nc(Nc3ccc(N4CCCC(O)C4)nc3)c12 (stereo not drawn) and give its recorded IC50.
### Response < 0.01 µM

### Prompt Consider the molecule "O=C(O)CN1CCCN(c2ccc(Nc3nc(N4CCCCCC4)nc4cn[nH]c(=O)c34)cc2)CC1" and give its recorded IC50.
### Response < 0.01 µM

### Prompt Consider the molecule "NCCOc1ccc(Nc2nc(N3CCCCCC3)nc3cn[nH]c(=O)c23)cc1" and give its recorded IC50.
### Response < 0.01 µM

### Prompt Consider the molecule N#CCC1CCN(c2nc(Nc3ccc(N4CCCC(CC(=O)O)C4)cc3)c3c(=O)[nH]ncc3n2)CC1 (stereo not drawn) and give its recorded IC50.
### Response < 0.05 µM

### Prompt Consider the molecule "O=c1[nH]ncc2nc(N3CCCCCC3)nc(Nc3ccc(OC(F)(F)F)cc3)c12" and give its recorded IC50.
### Response > 0.1 µM

---

target: Syk (356-635 amino acids) catalytic domain (Homo sapiens (Human)); test: Inhibition of enzymatic Syk kinase activity (radiometric); assay type: biochemical; settings: read-out: IC50 Syk
Counter-ions that a name gives are not always drawn.
observed_property: IC50

compound	observed_property	value_observed
O=c1[nH]ncc2nc(N3CCCCC3)nc(Nc3ccc(OCCN4CCC(O)CC4)cc3)c12 [Example 183]	IC50	< 10 nM

### Prompt Consider the compound N#CCC1CCN(c2nc(Nc3ccc(N4CCN(CCCO)CC4)cc3)c3c(=O)[nH]ncc3n2)CC1 [Example 261] and give its recorded IC50.
### Response < 10 nM

### Prompt Consider the compound O=c1[nH]ncc2nc(N3CCCCCC3)nc(Nc3ccc(N4CCOCC4)cc3)c12 [Example 60] and give its recorded IC50.
### Response < 10 nM

### Prompt Consider the compound COc1ccccc1-c1nc(Nc2ccc(N3CCC4(CC3)CC4C(=O)O)cc2)c2c(=O)[nH]ncc2n1 (stereo not shown) [Example 53] and give its recorded IC50.
### Response > 100 nM

### Prompt Consider the compound O=C(O)C[C@H]1CC[C@H](c2ccc(Nc3nc(N4CCCCCC4)nc4cn[nH]c(=O)c34)cc2)CC1 [Example 129] and give its recorded IC50.
### Response < 10 nM

### Prompt Consider the compound O=c1[nH]ncc2nc(N3CCCCCC3)nc(Nc3ccc(N4CCN(CC(O)CO)CC4)cc3)c12 (stereo not shown) [Example 273] and give its recorded IC50.
### Response < 10 nM

### Prompt Consider the compound N#CCC1CCN(c2ccc(Nc3nc(N4CCCCCC4)nc4cn[nH]c(=O)c34)cc2)CC1 [Example 80] and give its recorded IC50.
### Response < 50 nM

### Prompt Consider the compound N#CCC1CCN(c2nc(Nc3ccc(OC(F)F)cc3)c3c(=O)[nH]ncc3n2)CC1 [Example 338] and give its recorded IC50.
### Response < 100 nM

### Prompt Consider the compound CN1CCN(CCOc2ccc(Nc3nc(N4CCCCCC4)nc4cn[nH]c(=O)c34)cc2)CC1 [Example 95] and give its recorded IC50.
### Response < 50 nM

### Prompt Consider the compound N#CCC1CCN(c2nc(Nc3ccc4[nH]c(=O)[nH]c4c3)c3c(=O)[nH]ncc3n2)CC1 [Example 336] and give its recorded IC50.
### Response < 50 nM

### Prompt Consider the compound NCC(=O)N1CCN(c2ccc(Nc3nc(-c4ccccc4)nc4cn[nH]c(=O)c34)cc2)CC1 [Example 14] and give its recorded IC50.
### Response < 10 nM

### Prompt Consider the compound CS(=O)(=O)c1ccc(Nc2nc(N3CCC(CC#N)CC3)nc3cn[nH]c(=O)c23)cc1 [Example 333] and give its recorded IC50.
### Response > 100 nM

### Prompt Consider the compound N#CCC1CCN(c2nc(Nc3ccc(N4CCN(CC(=O)O)CC4)cc3)c3c(=O)[nH]ncc3n2)CC1 [Example 162] and give its recorded IC50.
### Response < 10 nM

### Prompt Consider the compound N#CCC1CCN(c2ccc(Nc3nc(N4CCCCCC4)nc4cn[nH]c(=O)c34)cn2)CC1 [Example 97] and give its recorded IC50.
### Response > 100 nM

### Prompt Consider the compound CN1CCN(c2ccc(Nc3nc(N4CCCCCC4)nc4cn[nH]c(=O)c34)cn2)CC1 [Example 242] and give its recorded IC50.
### Response < 50 nM

### Prompt Consider the compound O=C(O)C1CCN(c2nc(Nc3ccc(CN4CCNCC4)cc3)c3c(=O)[nH]ncc3n2)CC1 [Example 51, hydrochloride] and give its recorded IC50.
### Response > 100 nM

### Prompt Consider the compound O=C(O)C1CCN(Cc2ccc(Nc3nc(-c4ccccc4)nc4cn[nH]c(=O)c34)cc2)CC1 [Example 35] and give its recorded IC50.
### Response < 50 nM

### Prompt Consider the compound O=C(O)C1CC12CCN(c1ccc(Nc3nc(N4CCCCCC4)nc4cn[nH]c(=O)c34)cc1F)CC2 (stereo not shown) [Example 135] and give its recorded IC50.
### Response < 10 nM

### Prompt Consider the compound N#CCC1CCN(c2nc(Nc3ccc(CCCO)cc3)c3c(=O)[nH]ncc3n2)CC1 [Example 309] and give its recorded IC50.
### Response < 50 nM

### Prompt Consider the compound O=C(O)CN1CCN(CCOc2ccc(Nc3nc(N4CCCCCC4)nc4cn[nH]c(=O)c34)cc2)CC1 [Example 106] and give its recorded IC50.
### Response < 50 nM

### Prompt Consider the compound N#CCC1CCN(c2nc(Nc3ccc(N4CCC(O)CC4)cc3)c3c(=O)n(COP(=O)(O)O)ncc3n2)CC1 [Example 330, phosphate] and give its recorded IC50.
### Response > 100 nM

### Prompt Consider the compound N#CCC1CCN(c2nc(Nc3ccc(OCCCO)cc3)c3c(=O)[nH]ncc3n2)CC1 [Example 295] and give its recorded IC50.
### Response < 50 nM

### Prompt Consider the compound O=C(O)C1CC12CCN(c1ccc(Nc3nc(N4CCCCCC4)nc4cn[nH]c(=O)c34)cc1)CC2 (stereo not shown) [Example 62] and give its recorded IC50.
### Response < 10 nM
